test: chemical recovery from spiked human plasma; higher = better extraction; details: pooled human plasma; extraction method: SPE only (HLB 96-well);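 also: plasma spiked with over 400 chemicals, quantified by LC-HRMS and GC-HRMS via internal standard calibration against matrix-matched unspiked plasma extracts plus spike mix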
chemical recovery vs 40%: at or above is class 1, below is class 0.

Solved entries:
Query string: Is chemical recovery at least 40%? Consider "CCN(CC)C(=O)c1cccc(C)c1"
Result string: class 0

Query string: Hi, just wondering whether C(=C/c1ccccc1)/c1ccccc1 [cis-Stilbene] shows chemical recovery of 40% or higher.
Result string: class 0

Query string: API: above_or_equal(metric=chemical recovery, cutoff=40%) for item "Cc1ccc2cc3c(ccc4ccccc43)c3c2c1CC3"
Result string: class 0

Query string: Check this compound for chemical recovery at or above 40%: "Cn1cnc2c1c(=O)n(CCCC(=O)O)c(=O)n2C"
Result string: class 1

Query string: For this compound, is measured chemical recovery 40% or higher? "CC[N+](CC)(CC(=O)Nc1c(C)cccc1C)Cc1ccccc1"
Result string: class 0

---
Query string: Does the compound "COP(=O)(OC)O/C(C)=C/C(=O)N(C)C" have recorded chemical recovery that is 40% or more?
Result string: class 0

Query string: Hello, I need to know if CNC(=O)CSP(=O)(OC)OC [Omethoate] has measured chemical recovery not below 40%. Thanks!
Result string: class 0

Query string: Does the compound "O=P(OC(CCl)CCl)(OC(CCl)CCl)OC(CCl)CCl" have recorded chemical recovery that is 40% or more?
Result string: class 1

Query string: Is chemical recovery at least 40%? Consider "CC(C)c1c(C(=O)Nc2ccccc2)c(-c2ccccc2)c(-c2ccc(F)cc2)n1CC[C@@H](O)C[C@@H](O)CC(=O)O"
Result string: class 0

Query string: chemical recovery >= 40% for "Nc1ccc(Cc2ccc(N)cc2)cc1" ?
Result string: class 0

Query string: Does the reported chemical recovery for "CCCNCCOc1c(Cl)cc(Cl)cc1Cl" fall at or above the 40% mark?
Result string: class 1

Query string: # check: chemical recovery of "O=C(O)c1ccccc1Nc1cccc(C(F)(F)F)c1" is greater than or equal to 40%
Result string: class 1

Query string: Threshold query (chemical recovery >= 40%) on Oc1ccccc1-c1ccccc1O [2,2'-Dihydroxybiphenyl]
Result string: class 1

Query string: Textbook exercise: given the entry O=C(NCc1ncc(C(F)(F)F)cc1Cl)c1c(Cl)cccc1Cl [Fluopicolide] , state whether its chemical recovery is greater than or equal to 40%.
Result string: class 1

Attribution: the supplement of paper PMC10702517
